The reported measurements were obtained from patent US11236047B2.

System: SN40R2 cells
TEST_METHOD_NOTES: Protocol B: SN40R2 CellTiter-Glo luminescent cell viability assay
CONDITION: read-out: SN40R2 % inhibition at 10, Protocol B, SN40R2, at 10 μM
For each of the compounds below, state its inhibition at 10 µM.
Give bare numbers, in %.

Please review the entries below; each comes with its answer.
| COMPOUND | REPORTED_MEASUREMENT |
| --- | --- |
| CCC(O)(c1cc(F)c2c(c1)C(=O)N(Cc1ncc(C#N)cn1)[C@@]2(OCC1(C#N)CC1)c1ccc(Cl)cc1)C1(F)CCN(C)CC1 (single isomer, unassigned) | 27 |
| CCC(O)(c1cc(F)c2c(c1)C(=O)N(Cc1ccc(C#N)nc1)[C@@]2(O[C@H]1CCOC1)c1ccc(Cl)cc1)c1cn(C)cn1 (single isomer, unassigned) | 5 |
| CCC(O)(c1cc(F)c2c(c1)C(=O)N(Cc1ncc(Cl)cn1)[C@@]2(OCCO)c1ccc(Cl)cc1)C1(F)CCN(C)CC1 (single isomer, unassigned) | 11 |
| CCC(O)(c1cc(F)c2c(c1)C(=O)N(Cc1ncc(Cl)cn1)[C@@]2(O[C@H]1CCOC1)c1ccc(Cl)cc1)c1cn(C)cn1 (single isomer, unassigned) | 12 |
| CCC(O)(c1cc(F)c2c(c1)C(=O)N(Cc1ncc(Cl)cn1)[C@@]2(OC[C@@H](C)O)c1ccc(Cl)cc1)C1(F)CCN(C)CC1 (single isomer, unassigned) | 23 |

Quick one: give me inhibition at 10 µM for each item below, same order please.
1. CC[C@@](O)(c1cc(F)c2c(c1)C(=O)N(Cc1ncc(C#N)cn1)[C@@]2(O[C@H]1C[C@@H](O)C1)c1ccc(Cl)cc1)C1(F)CCOCC1
2. CC[C@@](O)(c1cc(F)c2c(c1)C(=O)N(Cc1ncc(C#N)cn1)[C@@]2(O[C@H]1CCOC1)c1ccc(Cl)cc1)C1CCC(O)CC1 (stereo partly drawn)
3. CCC(O)(c1cc(F)c2c(c1)C(=O)N(Cc1ncc(Cl)cn1)[C@@]2(OC)c1ccc(Cl)cc1)C1(F)CCNCC1 (single isomer, unassigned)
4. CCC(O)(c1cc(F)c2c(c1)C(=O)N(Cc1ccc(C#N)cn1)[C@@]2(OC1CC(O)C1)c1ccc(Cl)cc1)[C@H]1CC[C@H](O)CC1 (stereo partly drawn)
5. CCC(O)(c1cc(F)c2c(c1)C(=O)N(Cc1ncc(Cl)cn1)[C@@]2(O[C@H]1CCOC1)c1ccc(Cl)cc1)C1(F)CCNCC1 (single isomer, unassigned)
6. Cc1c[nH]c(C(C)(O)c2cc(F)c3c(c2)C(=O)N(Cc2ccc(Cl)cn2)[C@@]3(OCC2(O)CC2)c2ccc(Cl)cc2)n1 (mixture of isomers)
7. [2H]C([2H])(O)C1(C([2H])([2H])O[C@]2(c3ccc(Cl)cc3)c3c(F)cc(C(C)(C)O)cc3C(=O)N2Cc2ncc(C#N)cn2)CC1
8. CC[C@](O)(c1cc(F)c2c(c1)C(=O)N(Cc1ncc(C#N)cn1)[C@@]2(O[C@H]1C[C@@H](O)C1)c1ccc(Cl)cc1)C1(F)CCOCC1

Out:
1. 5
2. 13
3. 109
4. 10
5. 62
6. 5
7. 4
8. 2

Quick one: give me inhibition at 10 µM for each item below, same order please.
1. CCC(O)(c1cc(F)c2c(c1)C(=O)N(Cc1ncc(Cl)cn1)[C@@]2(O[C@H]1C[C@@H](O)C1)c1ccc(Cl)cc1)C1(F)CCN(C)CC1 (single isomer, unassigned)
2. CN1CCC(C(C)(O)c2cc(F)c3c(c2)C(=O)N(Cc2ncc(Cl)cn2)[C@@]3(OCC2(F)COC2)c2ccc(Cl)cc2)CC1 (single isomer, unassigned)
3. CCC(O)(c1cc(F)c2c(c1)C(=O)N(Cc1ccc(Cl)cn1)[C@@]2(O[C@H]1CCOC1)c1ccc(Cl)cc1)C1(F)CCNCC1 (single isomer, unassigned)
4. CCC(O)(c1cc(F)c2c(c1)C(=O)N(Cc1ncc(C#N)cn1)[C@@]2(OC)c1ccc(Cl)cc1)[C@H]1CC[C@H](O)CC1 (stereo partly drawn)
5. CCC(O)(CN1CCNCC1)c1cc(F)c2c(c1)C(=O)N(Cc1ncc(Cl)cn1)[C@@]2(OCC1(F)COC1)c1ccc(Cl)cc1 (single isomer, unassigned)
6. CCC(O)(c1cc(F)c2c(c1)C(=O)N(Cc1ccc(C#N)cn1)[C@@]2(OCCOC)c1ccc(Cl)cc1)c1cn(C)cn1 (single isomer, unassigned)
7. CCC(O)(c1cc(F)c2c(c1)C(=O)N(Cc1ccc(C#N)cn1)[C@@]2(O[C@H]1CCOC1)c1ccc(Cl)cc1)C1(F)CCNCC1 (single isomer, unassigned)
8. CCC(O)(c1cc(F)c2c(c1)C(=O)N(Cc1ncc(Cl)cn1)[C@@]2(OC[C@@H](C)O)c1ccc(Cl)cc1)C1(F)CCNCC1 (single isomer, unassigned)

Out:
1. 26
2. 6
3. 111
4. 0
5. 43
6. 4
7. 17
8. -6
